- Tested on: 885724-159-R-J1-PDC complex spheroid viability;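 also: spheroids exposed to compounds for 7 days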
- method notes: Anticancer human tumor 885724-159-R-J1-PDC patient-derived pancreatic adenocarcinoma cell line growth inhibition [POLQ]
- conditions: second compound 10 µM; first compound 0.316 µM; active compounds read low
Documented viability, T/C across a set of molecules

Please review the entries below; each comes with its answer.
INSERT INTO measurements (molecule, assay_system, endpoint_name, experimental_result) VALUES
  ('COc1cccc(OCCCN)c1-c1cc(Nc2cnc(C#N)cn2)n[nH]1 + Nc1ccc(C#CCN(C(=O)Cc2ncc(C(F)(F)F)cc2C(F)(F)F)c2ccc(F)cc2)nn1', '885724-159-R-J1-PDC complex spheroid viability', 'viability, T/C', '53.2%'),
  ('CC(C)n1c(=O)n(C)c2cnc3cc(F)c(-c4ccc(OCCCN5CCCCC5)nc4)cc3c21 + COC1C(OC(N)=O)C(O)C(Oc2ccc3c(O)c(NC(=O)c4ccc(O)c(CC=C(C)C)c4)c(=O)oc3c2C)OC1(C)C', '885724-159-R-J1-PDC complex spheroid viability', 'viability, T/C', '114%');

Here is another molecule to look at.
Determine from records and report viability, T/C for CNCc1ccc(-c2[nH]c3cc(F)cc4c3c2CCNC4=O)cc1 + COC1C(OC(N)=O)C(O)C(Oc2ccc3c(O)c(NC(=O)c4ccc(O)c(CC=C(C)C)c4)c(=O)oc3c2C)OC1(C)C
84%
